- test-system: E. coli CsgA (Escherichia coli)
- Construct: made in house; host or cells: E. coli NEB 3016 slyD::kan, pET11d
- Sequence (P28307 23-151): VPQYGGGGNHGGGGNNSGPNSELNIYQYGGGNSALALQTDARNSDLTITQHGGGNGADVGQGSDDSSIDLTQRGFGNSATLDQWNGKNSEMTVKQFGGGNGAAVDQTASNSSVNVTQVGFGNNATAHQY
- test-details: In vitro ThioflavinT assay of CsgA aggregation (CsgA ThT Assay)
- Assay type: biochemical
- condition-label: read-out: CsgA ThT Assay (10 μM CsgA) % Control AUC at 1005 minutes, 100 μM, mean AUC as % of DMSO control; CsgA 10 μM, black plates; compound 100 μM; 1005 minutes

# compound, remaining activity at 100 µM [%]
measured = [
    ("O=C(O)CCCCN1CC(C(=O)O)n2c(c(-c3cccc(C(F)(F)F)c3)c(Cc3cccc4ccccc34)cc2=O)S1(=O)=O (stereo not shown)", 24),
    ("CN(C)Cc1c(Cc2cccc3ccccc23)c(-c2cccc(C(F)(F)F)c2)c2n(c1=O)C(C(=O)O)CN(C)S2(=O)=O (stereo not shown)", 25),
    ("Nc1c(Cc2cccc3ccccc23)c(-c2cccc(C(F)(F)F)c2)c2n(c1=O)C(C(=O)O)CN(CCO)S2(=O)=O (stereo not shown)", 33),
    ("CCCN1CC(C(=O)O)n2c(c(-c3cccc(C(F)(F)F)c3)c(Cc3cccc4ccccc34)c(CC)c2=O)S1(=O)=O (stereo not shown)", 22),
    ("CCc1c(Cc2cccc3ccccc23)c(-c2cccc(C(F)(F)F)c2)c2n(c1=O)C(C(=O)O)CN([C@H]1CC[C@@H](O)CC1)S2(=O)=O (stereo partly shown)", 21),
    ("CNC(=O)C1CN(C)S(=O)(=O)c2c(-c3cccc(C(F)(F)F)c3)c(Cc3cccc4ccccc34)cc(=O)n21 (stereo not shown)", 99),
    ("CN1CC(C(=O)O)n2c(c(-c3cccc(C(F)(F)F)c3)c(Cc3cccc4ccccc34)c(CO)c2=O)S1(=O)=O (stereo not shown)", 87),
    ("CN1CC(C(=O)O)n2c(c(-c3cccc(C(F)(F)F)c3)c(Cc3cccc4ccccc34)c(N3CCOCC3)c2=O)S1(=O)=O (stereo not shown)", 14),
    ("O=C(O)[C@H]1CNS(=O)(=O)c2c(-c3cccc(C(F)(F)F)c3)c(Cc3cccc4ccccc34)cc(=O)n21 (single isomer, unassigned) [Compound 009b]", 37),
    ("Cc1c(Cc2cccc3ccccc23)c(-c2cccc(C(F)(F)F)c2)c2n(c1=O)C(C(=O)O)CN(C)S2(=O)=O (stereo not shown)", 23),
    ("CCCN1CC(C(=O)O)n2c(c(-c3cccc(C(F)(F)F)c3)c(Cc3cccc4ccccc34)c(Br)c2=O)S1(=O)=O (stereo not shown)", 38),
    ("C/C=C/c1c(Cc2cccc3ccccc23)c(-c2cccc(C(F)(F)F)c2)c2n(c1=O)C(C(=O)O)CN(C)S2(=O)=O (stereo not shown)", 26),
    ("CN1CC(C(=O)O)n2c(c(-c3cccc(C(F)(F)F)c3)c(Cc3cccc4ccccc34)cc2=O)S1(=O)=O (single isomer, unassigned) [Compound 008a]", 38),
    ("CN1CC(C(=O)O)n2c(c(-c3cccc(C(F)(F)F)c3)c(Cc3cccc4ccccc34)c(C(N)=O)c2=O)S1(=O)=O (stereo not shown)", 22),
    ("CCCc1sc2c(-c3cccc(C(F)(F)F)c3)c(Cc3cccc4ccccc34)cc(=O)n2c1C(=O)O", 45),
    ("O=C(O)C1CN(C[C@H](O)[C@@H](O)[C@H](O)[C@H](O)CO)S(=O)(=O)c2c(-c3cccc(C(F)(F)F)c3)c(Cc3cccc4ccccc34)cc(=O)n21 (mixture of isomers)", 29),
    ("O=C(O)C1CN(CCCO)S(=O)(=O)c2c(-c3cccc(C(F)(F)F)c3)c(Cc3cccc4ccccc34)cc(=O)n21 (stereo not shown)", 34),
    ("O=C(O)C1CN(C(=O)OCc2ccccc2)c2c(-c3cccc(C(F)(F)F)c3)c(Cc3cccc4ccccc34)cc(=O)n21 (stereo not shown)", 102),
    ("O=C(O)C1CN(CCCCCO)S(=O)(=O)c2c(-c3cccc(C(F)(F)F)c3)c(Cc3cccc4ccccc34)cc(=O)n21 (stereo not shown)", 20),
    ("Nc1c(Cc2cccc3ccccc23)c(-c2cccc(C(F)(F)F)c2)c2n(c1=O)C(C(=O)O)CS2 (single isomer, unassigned) [Compound 020a]", 20),
    ("CCc1c(Cc2cccc3ccccc23)c(-c2cccc(C(F)(F)F)c2)c2n(c1=O)C(C(=O)O)CN(CCCO)S2(=O)=O (stereo not shown)", 20),
    ("CN1CC(C(=O)O)n2c(c(-c3cccc(C(F)(F)F)c3)c(Cc3cccc4ccccc34)c(C(O)CO)c2=O)S1(=O)=O (stereo not shown)", 15),
    ("Nc1c(Cc2cccc3ccccc23)c(-c2cccc(C(F)(F)F)c2)c2n(c1=O)C(C(=O)O)CN(C[C@H](O)CO)S2(=O)=O (stereo partly shown)", 70),
    ("O=C(O)[C@@H]1CS(=O)(=O)c2c(-c3cccc(C(F)(F)F)c3)c(Cc3cccc4ccccc34)cc(=O)n21 (single isomer, unassigned) [Compound 010a]", 37),
    ("CN1CC(C(=O)O)n2c1c(-c1cccc(C(F)(F)F)c1)c(Cc1cccc3ccccc13)c(Br)c2=O (stereo not shown)", 35),
]
